Values were extracted from DBAASP.

Assay system Staphylococcus aureus KCTC 1621; read-out recorded as MIC.
One number for each entry, in µM.

Use these answered entries as a reference point.
compound_smiles	test_system	scale_unit	MIC
CC[C@H](C)[C@@H]1NC(=O)[C@H](CCCN=C(N)N)NC(=O)[C@@H](NC(=O)[C@H](CC(C)C)NC(=O)[C@@H](N)CCCN=C(N)N)CSSC[C@@H](C(=O)N[C@@H](CCCN=C(N)N)C(=O)O)NC(=O)[C@H](Cc2c[nH]c3ccccc23)NC(=O)[C@H](CCCN=C(N)N)NC(=O)[C@H]([C@@H](C)CC)NC(=O)[C@H](Cc2c[nH]c3ccccc23)NC(=O)[C@H](Cc2c[nH]c3ccccc23)NC1=O	Staphylococcus aureus KCTC 1621	µM	16
CC[C@H](C)[C@H](N)C(=O)N[C@@H](CC(C)C)C(=O)N[C@@H](CCCCN)C(=O)N[C@@H](Cc1c[nH]c2ccccc12)C(=O)N[C@@H](CCCCN)C(=O)N[C@@H](Cc1c[nH]c2ccccc12)C(=O)N1CCC[C@H]1C(=O)N[C@@H](Cc1c[nH]c2ccccc12)C(=O)N[C@@H](Cc1c[nH]c2ccccc12)C(=O)N[C@@H](CCCCN)C(=O)N[C@@H](Cc1c[nH]c2ccccc12)C(=O)N[C@@H](CCCN=C(N)N)C(=O)N[C@@H](CCCN=C(N)N)C(N)=O	Staphylococcus aureus KCTC 1621	µM	2.54
CC[C@H](C)[C@H](NC(=O)CNC(=O)[C@H](CC(C)C)NC(=O)[C@H](CCCN=C(N)N)NC(=O)[C@H](CCCCN)NC(=O)[C@H](Cc1ccccc1)NC(=O)[C@@H](NC(=O)[C@H](CCCCN)NC(=O)[C@H](CCCCN)NC(=O)[C@H](C)N)C(C)C)C(=O)NCC(=O)N[C@@H](C)C(=O)N[C@H](C(=O)N[C@@H](CC(C)C)C(=O)N[C@@H](CCCCN)C(=O)N[C@H](C(=O)N[C@@H](CC(C)C)C(=O)N[C@H](C(=O)N[C@H](C(=O)NCC(=O)O)[C@@H](C)O)[C@@H](C)O)C(C)C)C(C)C	Staphylococcus aureus KCTC 1621	µM	1.56
CC[C@H](C)[C@H](N)C(=O)N[C@@H](CC(C)C)C(=O)N[C@@H](CCCCN)C(=O)N[C@@H](Cc1c[nH]c2ccccc12)C(=O)N[C@@H](CCCCN)C(=O)N[C@@H](Cc1c[nH]c2ccccc12)C(=O)N[C@@H](CCCCN)C(=O)N[C@@H](Cc1c[nH]c2ccccc12)C(=O)N[C@@H](Cc1c[nH]c2ccccc12)C(=O)N1CCC[C@H]1C(=O)N[C@@H](Cc1c[nH]c2ccccc12)C(=O)N[C@@H](CCCN=C(N)N)C(=O)N[C@@H](CCCN=C(N)N)C(N)=O	Staphylococcus aureus KCTC 1621	µM	5.08

Attention now shifts to the item below.
Prompt: Answer with the recorded MIC of CC[C@H](C)[C@H](NC(=O)[C@H](CC(C)C)NC(=O)[C@H](CC(C)C)NC(=O)[C@@H](N)CC(C)C)C(=O)N[C@@H](C)C(=O)N[C@@H](CC(C)C)C(=O)N[C@@H](CCCN=C(N)N)C(=O)N[C@@H](CCCCN)C(=O)N[C@@H](CCCCN)C(N)=O only.
Completion: 3.75

----------
# Tested on: Escherichia coli
reported_metric: MIC

Prompt: Give me measured MIC, please, for this molecule: CC[C@H](C)[C@H](NC(=O)[C@@H](NC(=O)[C@H](Cc1ccccc1)NC(=O)[C@H](CCCCN)NC(=O)[C@H](C)NC(=O)[C@H](CC(C)C)NC(=O)[C@H](CCCCN)NC(=O)CNC(=O)[C@H](CC(C)C)NC(=O)[C@@H](NC(=O)[C@@H](NC(=O)CNC(=O)[C@H](C)NC(=O)[C@H](C)NC(=O)[C@@H](NC(=O)[C@H](C)NC(=O)[C@H](CCSC)NC(=O)CN)[C@@H](C)O)[C@@H](C)O)[C@@H](C)O)C(C)C)C(=O)NCC(=O)N[C@@H](C)C(=O)N[C@H](C(N)=O)C(C)C
Completion: > 80 µM

----------
Hi! I'm sharing some MIC results obtained with Staphylococcus aureus NCTC 8325-4.

Answered cases to consult:
compound_smiles	MIC
CC[C@H](C)[C@H](N)C(=O)N[C@@H](C)C(=O)N[C@@H](C)C(=O)N[C@@H](C)C(=O)NCC(=O)N[C@@H](CC(C)C)C(=O)N1CCC[C@H]1C(=O)N[C@@H](CCC(N)=O)C(=O)N[C@@H](CCC(=O)O)C(=O)O	≥ 1250 µM
CC(C)C[C@H](NC(=O)[C@H](CC(C)C)NC(=O)[C@H](CC(N)=O)NC(=O)[C@H](CC(=O)O)NC(=O)[C@H](CC(N)=O)NC(=O)[C@H](CC(C)C)NC(=O)[C@@H](N)C(C)C)C(=O)N[C@@H](CCCN=C(N)N)C(=O)O	≥ 2500 µM
CC(C)C[C@H](NC(=O)[C@H](CCCCN)NC(=O)[C@H](CCCCN)NC(=O)[C@H](CC(C)C)NC(=O)[C@H](CC(C)C)NC(=O)[C@H](CCCCN)NC(=O)[C@H](CCCCN)NC(=O)[C@H](CC(C)C)NC(=O)[C@H](CC(C)C)NC(=O)[C@H](CCCCN)NC(=O)[C@H](CCCCN)NC(=O)[C@@H](N)CC(C)C)C(N)=O	15.6 µM

In the following, a different compound is considered.
Prompt: Query MIC for CC[C@H](C)[C@H](N)C(=O)N[C@@H](Cc1cnc[nH]1)C(=O)N[C@@H](CCC(N)=O)C(=O)NCC(=O)N[C@@H](CC(C)C)C(=O)N1CCC[C@H]1C(=O)N[C@@H](CCC(N)=O)C(=O)N[C@@H](CCC(=O)O)C(=O)O
Completion: ≥ 2500 µM

----------
# Test system: Proteus vulgaris KCTC 2433
reported_metric: MIC (µM)
Give bare numbers, in µM.

Examples with answers:
compound_smiles	test_system	obs_value
CC[C@H](C)[C@H](NC(=O)CNC(=O)[C@H](CC(C)C)NC(=O)[C@H](CCCN=C(N)N)NC(=O)[C@H](CCCCN)NC(=O)[C@H](Cc1ccccc1)NC(=O)[C@@H](NC(=O)[C@H](CCCCN)NC(=O)[C@H](CCCCN)NC(=O)[C@H](C)N)C(C)C)C(=O)NCC(=O)N[C@@H](C)C(=O)N[C@H](C(=O)N[C@@H](CC(C)C)C(=O)N[C@@H](Cc1c[nH]c2ccccc12)C(=O)N[C@H](C(=O)N[C@@H](CC(C)C)C(=O)N[C@H](C(=O)N[C@@H](Cc1c[nH]c2ccccc12)C(=O)NCC(=O)O)[C@@H](C)O)C(C)C)C(C)C	Proteus vulgaris KCTC 2433	3.12
CC[C@H](C)[C@H](NC(=O)[C@H](CCCCN)NC(=O)[C@H](CCCCN)NC(=O)[C@H](C)NC(=O)[C@H](CC(C)C)NC(=O)[C@H](CCCCN)NC(=O)[C@H](CCCCN)NC(=O)[C@H](CC(C)C)NC(=O)[C@H](CCCN=C(N)N)NC(=O)[C@H](CCCCN)NC(=O)[C@H](C)N)C(=O)N[C@@H](Cc1c[nH]c2ccccc12)C(=O)N[C@@H](CC(N)=O)C(=O)N[C@@H](Cc1c[nH]c2ccccc12)C(=O)N[C@@H](CCCCN)C(N)=O	Proteus vulgaris KCTC 2433	4
CC[C@H](C)[C@H](NC(=O)CNC(=O)[C@H](CC(C)C)NC(=O)[C@H](CCCN=C(N)N)NC(=O)[C@H](CCCCN)NC(=O)[C@H](Cc1ccccc1)NC(=O)[C@@H](NC(=O)[C@H](CCCCN)NC(=O)[C@H](CCCCN)NC(=O)[C@H](C)N)C(C)C)C(=O)NCC(=O)N[C@@H](C)C(=O)N[C@H](C(=O)N[C@@H](CC(C)C)C(=O)N[C@@H](CCCCN)C(=O)N[C@H](C(=O)N[C@@H](CC(C)C)C(=O)N[C@H](C(=O)N[C@H](C(=O)NCC(=O)O)[C@@H](C)O)[C@@H](C)O)C(C)C)C(C)C	Proteus vulgaris KCTC 2433	6.25

# input for lookup
Prompt: Supply recorded MIC for CC[C@H](C)[C@H](NC(=O)[C@H](CCCCN)NC(=O)[C@H](CCCCN)NC(=O)[C@H](Cc1ccccc1)NC(=O)[C@H](CC(C)C)NC(=O)[C@H](CCCCN)NC(=O)[C@H](CCCCN)NC(=O)[C@H](CC(C)C)NC(=O)[C@H](CCCN=C(N)N)NC(=O)[C@H](CCCCN)NC(=O)[C@@H](N)Cc1ccccc1)C(=O)N[C@@H](Cc1c[nH]c2ccccc12)C(=O)N[C@@H](CC(N)=O)C(=O)N[C@@H](Cc1c[nH]c2ccccc12)C(=O)N[C@@H](CCCCN)C(N)=O here.
Completion: 8

----------
Record set of MIC for target or system Candida albicans ATCC 10231.
One number for each entry, in µM.

compound_smiles	MIC / µM
CC[C@H](C)[C@H](NC(=O)[C@H](CCCCN)NC(=O)[C@H](CCCCN)NC(=O)[C@H](Cc1c[nH]c2ccccc12)NC(=O)[C@@H](NC(=O)[C@H](CCCCN)NC(=O)[C@H](Cc1c[nH]c2ccccc12)NC(=O)[C@@H](N)CC(C)C)[C@@H](C)CC)C(=O)N[C@@H](Cc1c[nH]c2ccccc12)C(=O)N[C@@H](CCCN=C(N)N)C(=O)N[C@H](C(=O)NCC(=O)N[C@@H](Cc1c[nH]c2ccccc12)C(=O)N[C@@H](CC(N)=O)C(=O)N[C@@H](Cc1c[nH]c2ccccc12)C(=O)N[C@@H](CCCN=C(N)N)C(=O)O)C(C)C	14.2
CC[C@H](C)[C@H](NC(=O)[C@@H](NC(=O)[C@@H]1CCCN1C(=O)[C@H](CC(C)C)NC(=O)[C@@H](NC(=O)[C@@H](N)CO)[C@@H](C)CC)[C@@H](C)O)C(=O)N[C@H](C(=O)N[C@@H](CO)C(=O)N[C@@H](Cc1ccccc1)C(=O)N[C@@H](CC(C)C)C(=O)N[C@@H](CO)C(=O)N[C@@H](CCCCN)C(=O)N[C@H](C(=O)N[C@@H](Cc1ccccc1)C(N)=O)C(C)C)C(C)C	12.5
CC[C@H](C)[C@H](NC(=O)[C@H](CCCCN)NC(=O)[C@H](CCCCN)NC(=O)[C@H](CC(C)C)NC(=O)[C@@H](NC(=O)[C@H](CCCCN)NC(=O)[C@H](Cc1c[nH]c2ccccc12)NC(=O)[C@@H](N)CC(C)C)[C@@H](C)CC)C(=O)N[C@@H](Cc1c[nH]c2ccccc12)C(=O)N[C@@H](CCCN=C(N)N)C(=O)N[C@H](C(=O)N[C@@H](CC(C)C)C(=O)N[C@@H](Cc1c[nH]c2ccccc12)C(=O)N[C@@H](CC(N)=O)C(=O)N[C@@H](Cc1c[nH]c2ccccc12)C(=O)N[C@@H](CCCN=C(N)N)C(=O)O)C(C)C	28.6

Prompt: Report value only: MIC, Candida albicans ATCC 10231, C[C@H](NC(=O)[C@H](CCCCN)NC(=O)[C@H](Cc1c[nH]c2ccccc12)NC(=O)[C@H](Cc1c[nH]c2ccccc12)NC(=O)[C@H](Cc1c[nH]c2ccccc12)NC(=O)[C@H](Cc1c[nH]c2ccccc12)NC(=O)[C@H](CCCCN)NC(=O)[C@H](CCCCN)NC(=O)CN)C(=O)N[C@@H](CCCCN)C(N)=O
Completion: 11.1
